TGT: KRAS G12C-BRAF complex (Homo sapiens (Human), UniProt P01116+P62937, G12C)
Sequence (P01116-2 other isoform, or with tags, fused parts or gaps G12C): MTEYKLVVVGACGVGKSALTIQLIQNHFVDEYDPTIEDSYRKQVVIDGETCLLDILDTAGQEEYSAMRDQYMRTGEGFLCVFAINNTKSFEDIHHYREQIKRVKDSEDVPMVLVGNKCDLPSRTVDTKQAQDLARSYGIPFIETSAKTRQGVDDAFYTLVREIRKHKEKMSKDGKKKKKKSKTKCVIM
Sequence (P62937 whole entry): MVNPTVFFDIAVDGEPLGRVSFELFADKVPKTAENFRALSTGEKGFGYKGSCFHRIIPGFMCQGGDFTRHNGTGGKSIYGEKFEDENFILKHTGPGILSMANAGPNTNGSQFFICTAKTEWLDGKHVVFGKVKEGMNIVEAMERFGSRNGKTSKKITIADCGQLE
PROTOCOL_NOTES: KRAS-BRAF with CYPA (500 nM) interaction assay (TR-FRET, Example 136)
STATED_CONDITIONS: KRAS G12C-BRAF disruption

# MOLECULE, IC50 / nM
data = [
    ("CO[C@@H](C)c1ncc(N2CCN(CCOC3CCOC3)CC2)cc1-c1c2c3cc(cc4c3n1CCC4)-c1csc(n1)C[C@H](NC(=O)[C@H]1[C@H](C)[C@@H]1C)C(=O)N1CCC[C@H](N1)C(=O)OCC(C)(C)C2 (stereo partly shown)", 15.1),
    ("CO[C@@H](C)c1ncc(N2CCN(C)CC2)cc1-c1c2c3cc(cc4c3n1CCC4)-c1csc(n1)C[C@H](NC(=O)[C@H]1[C@@H]3CC(F)(F)C[C@@H]31)C(=O)N1CCC[C@H](N1)C(=O)OCC(C)(C)C2 (atropisomer, axis not shown; (M))", 4.4),
    ("CO[C@@H](C)c1ncc(N2CCN(C)CC2)cc1-c1c2c3cc(cc4c3n1CCC4)-c1csc(n1)C[C@H](NC(=O)[C@@H]1C[C@H]1c1cncc(C)c1)C(=O)N1CCC[C@H](N1)C(=O)OCC(C)(C)C2 (atropisomer, axis not shown; (M))", 20.4),
    ("CO[C@@H](C)c1ncc(N2CCN(CC(F)(F)F)CC2)cc1-c1c2c3cc(cc4c3n1CCO4)-c1csc(n1)C[C@H](NC(=O)[C@H]1C[C@@H]1c1cccnc1)C(=O)N1CCC[C@H](N1)C(=O)OCC(C)(C)C2 (atropisomer, axis not shown; (M))", 11.1),
]

Recorded values, source patent US20240417410A1.
